# target: T-type calcium channel (Homo sapiens)
# Sequence (O95180 whole entry): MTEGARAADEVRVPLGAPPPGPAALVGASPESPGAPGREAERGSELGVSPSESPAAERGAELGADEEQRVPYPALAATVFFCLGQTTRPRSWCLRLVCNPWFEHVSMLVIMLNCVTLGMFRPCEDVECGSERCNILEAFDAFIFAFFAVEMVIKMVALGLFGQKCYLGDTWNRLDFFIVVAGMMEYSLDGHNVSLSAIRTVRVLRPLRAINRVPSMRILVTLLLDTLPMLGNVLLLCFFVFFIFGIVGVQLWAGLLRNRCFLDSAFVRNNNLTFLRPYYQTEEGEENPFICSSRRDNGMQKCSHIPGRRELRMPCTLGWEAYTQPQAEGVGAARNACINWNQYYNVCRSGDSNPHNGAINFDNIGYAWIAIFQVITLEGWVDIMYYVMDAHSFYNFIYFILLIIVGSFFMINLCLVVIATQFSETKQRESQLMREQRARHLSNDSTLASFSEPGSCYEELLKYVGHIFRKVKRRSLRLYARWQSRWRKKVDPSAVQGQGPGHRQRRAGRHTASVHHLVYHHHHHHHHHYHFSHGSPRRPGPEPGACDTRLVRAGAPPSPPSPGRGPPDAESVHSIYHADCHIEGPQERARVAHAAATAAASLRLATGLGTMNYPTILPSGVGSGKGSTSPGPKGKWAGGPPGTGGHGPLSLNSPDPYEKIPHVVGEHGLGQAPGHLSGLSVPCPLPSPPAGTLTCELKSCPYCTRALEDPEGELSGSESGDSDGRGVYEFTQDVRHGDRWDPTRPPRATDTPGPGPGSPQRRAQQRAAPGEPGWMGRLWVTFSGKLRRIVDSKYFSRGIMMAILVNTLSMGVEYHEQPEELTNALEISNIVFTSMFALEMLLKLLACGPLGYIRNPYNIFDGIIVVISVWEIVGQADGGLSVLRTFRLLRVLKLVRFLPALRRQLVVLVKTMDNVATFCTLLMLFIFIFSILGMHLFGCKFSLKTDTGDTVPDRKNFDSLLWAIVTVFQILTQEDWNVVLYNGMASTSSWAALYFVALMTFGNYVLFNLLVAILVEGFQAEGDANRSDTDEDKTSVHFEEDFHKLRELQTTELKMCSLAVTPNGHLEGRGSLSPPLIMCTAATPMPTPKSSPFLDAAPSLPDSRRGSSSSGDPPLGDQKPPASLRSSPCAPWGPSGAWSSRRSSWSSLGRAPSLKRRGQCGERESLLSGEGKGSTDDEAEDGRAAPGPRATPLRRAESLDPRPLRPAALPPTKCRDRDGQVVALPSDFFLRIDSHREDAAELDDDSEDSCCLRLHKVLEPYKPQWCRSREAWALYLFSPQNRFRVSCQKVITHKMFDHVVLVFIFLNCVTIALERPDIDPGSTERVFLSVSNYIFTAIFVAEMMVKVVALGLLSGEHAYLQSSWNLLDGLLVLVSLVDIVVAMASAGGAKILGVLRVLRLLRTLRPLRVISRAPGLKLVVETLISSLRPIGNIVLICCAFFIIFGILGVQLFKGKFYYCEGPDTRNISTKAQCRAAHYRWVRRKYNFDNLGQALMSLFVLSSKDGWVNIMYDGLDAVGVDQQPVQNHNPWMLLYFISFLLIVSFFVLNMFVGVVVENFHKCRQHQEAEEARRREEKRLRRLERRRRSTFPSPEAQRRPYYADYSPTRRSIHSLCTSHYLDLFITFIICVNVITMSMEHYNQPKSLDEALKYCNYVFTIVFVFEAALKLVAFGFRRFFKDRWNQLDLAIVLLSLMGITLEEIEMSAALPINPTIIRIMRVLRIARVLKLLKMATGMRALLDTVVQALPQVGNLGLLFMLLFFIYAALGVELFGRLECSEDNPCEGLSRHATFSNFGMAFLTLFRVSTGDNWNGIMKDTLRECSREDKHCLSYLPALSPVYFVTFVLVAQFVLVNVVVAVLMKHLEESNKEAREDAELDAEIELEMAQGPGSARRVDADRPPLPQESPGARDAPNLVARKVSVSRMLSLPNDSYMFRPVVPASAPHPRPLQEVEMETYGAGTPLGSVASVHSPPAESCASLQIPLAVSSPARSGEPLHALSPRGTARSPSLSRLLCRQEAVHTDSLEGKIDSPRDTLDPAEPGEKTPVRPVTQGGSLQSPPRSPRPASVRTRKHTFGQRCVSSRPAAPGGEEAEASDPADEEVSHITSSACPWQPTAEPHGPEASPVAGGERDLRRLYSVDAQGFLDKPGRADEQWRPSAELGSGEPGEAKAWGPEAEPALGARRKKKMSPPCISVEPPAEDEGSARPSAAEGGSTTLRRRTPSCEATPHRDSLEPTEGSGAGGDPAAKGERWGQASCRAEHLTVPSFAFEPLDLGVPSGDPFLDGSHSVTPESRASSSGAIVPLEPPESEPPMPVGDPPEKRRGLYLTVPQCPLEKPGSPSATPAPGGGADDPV
# assay-info: T-type channel blocking, FLIPR data (Table 6)
# Assay type: cell-based
# conditions: CAv3.2, ratio closed/inactivated IC50
readout-kind: CAv3.2 IC50 Ratio closed/inact.
Keep the answer to the number alone.

# example entries with known answers
compound: CC(C)S(=O)(=O)c1cc(C(F)(F)F)cnc1C(=O)N[C@H]1C[C@H](C(C)(C)S(=O)(=O)c2cccc(OC(F)(F)F)c2)C1
CAv3.2 IC50 Ratio closed/inact.: 0.9

compound: CC(C)([C@H]1C[C@@H](NC(=O)c2ccnc(C(F)(F)F)n2)C1)S(=O)(=O)c1cc(F)cc(C(F)(F)F)c1
CAv3.2 IC50 Ratio closed/inact.: 3.1

compound: CC(C)(C[C@H]1C[C@@H](NC(=O)c2ccc(C(F)(F)F)nc2)C1)S(=O)(=O)c1cccc(C(F)(F)F)c1
CAv3.2 IC50 Ratio closed/inact.: 2.4

Assign CAv3.2 IC50 Ratio closed/inact. to the following record: CC(C)([C@H]1C[C@H](NC(=O)c2ccnc(C(F)(F)F)c2)C1)S(=O)(=O)c1cccc(C(F)(F)F)c1
1.5

Assign CAv3.2 IC50 Ratio closed/inact. to the following record: CC(C)([C@H]1C[C@H](NS(=O)(=O)c2ccc(F)c(Cl)c2)C1)S(=O)(=O)c1cccc(C(F)(F)F)c1
1.1
